Reference for the values: patent US9320748B2

assay: in vivo; settings: mouse, im, 4 mg/kg
measure: half-life (h)
Just the number in h, nothing appended.

Memo: Cc1cc(OCCOCCOCCP(=O)(O)O)ccc1CCc1cnc2c(N)nc3cc(CCC(=O)O)ccc3c2c1 [free base] , reported half-life: 8.48
